Ref: ChEMBL document CHEMBL4145490

Answer each item with its documented pIC50.
# Protocol Description: Inhibition of bacterial VIM2 (27 to 266 residues) expressed in Escherichia coli Transetta (DE3) cells using FC-5 as substrate by fluorescence assay
# Design: species or system Bacteria
Give only the figure.

Data point: `C[C@H](CS)C(=O)N[C@H](C(=O)O)c1ccc(F)cc1` ; pIC50 = 6.92

Entry `C[C@H](CS)C(=O)N[C@H](C(=O)O)c1ccc(O)cc1` ; pIC50 = 7.11

The reported pIC50 of the compound `C[C@H](CS)C(=O)N[C@H](Cc1ccccc1)C(=O)O` was 6.92

`C[C@H](CS)C(=O)N[C@@H](C(=O)O)c1ccc(O)cc1` yielded pIC50 of 7.86

response.value for `C[C@H](CS)C(=O)N[C@H](C(=O)O)c1ccccc1` (field: pIC50) = 7.41

Entry `C[C@H](CS)C(=O)N[C@@H](C(=O)O)c1ccc(F)cc1` ; pIC50 = 7.26

get_value(item= `C[C@H](CS)C(=O)N[C@@H](Cc1ccccc1)C(=O)O` , readout=pIC50) returns 5.55

Reported pIC50 for `C[C@H](CS)C(=O)N[C@H](Cc1ccc(O)cc1)C(=O)O` was 6.56

For record `C[C@H](CS)C(=O)N[C@@H](Cc1ccc(O)cc1)C(=O)O` the listed pIC50 is 6.31

Entry `C[C@H](CS)C(=O)N[C@@H](C(=O)O)c1ccccc1` , pIC50 reported as 7.25
